# Test system: RPMI-8226
# test.method.notes: NCI tumour cell line growth inhibition, 48 h
Activity calls are given as the source filed them. No stated cut-off is given here; in the data, active = GI50 up to about 1.1 µM and inactive = higher.
property.label: GI50

As a guide, the following entries are already answered.
>>> val("COc1ccc(C2C3CCc4ccccc4C3=NN2S(=O)(=O)c2ccc(Cl)cc2)cc1 (stereo not given)")
"14 µM (inactive)"
>>> val("C/C(CCN(C)C)=N\\OC(=O)c1ccccc1")
"> 100 µM (inactive)"
>>> val("Cc1nc(N)c(N2CCNCC2)c(O)n1")
"> 100 µM (inactive)"
>>> val("COc1cccc(/C=N/n2c(Cc3ccc(Cl)cc3)n[nH]c2=O)c1")
"> 77.6 µM (inactive)"
>>> val("CCCCCCCCCCCCCCCCCC(=O)O[C@H](COC(=O)CCCCCCCCCCC)COC(=O)CCCCCCCCCCCCCCC")
"> 100 µM (inactive)"
>>> val("CC(C)(C)C1CCC(=O)/C(=C/CC2CC(=O)N(c3ccccc3)C(=O)C2)C1 (stereo not given)")
"18.7 µM (inactive)"

Looking up CCOC(=O)C1=NN(c2ccccc2)C2=CC(C)=NN(C)C(=S)N21 , I found its GI50 recorded as > 100 µM (inactive)

Given item COCCN1C(=O)C2c3[nH]c4ccccc4c3C3CCC(C(C)(C)C)CC3C2C1=O (stereo not given) , the value recorded as its GI50 is 15.2 µM (inactive)

Summary for this molecule, C=C(C)C(=O)OC1CC2(C)OC(=CC2=O)C(C)CC2OC(=O)C(=C)C12 (stereo not given) : GI50 is 3.3 µM (inactive)

For reference, reported GI50 for Cc1c(C)c(S(=O)(=O)N(CCCCN)OCCCN)c(C)c2c1OC(C)(C)CC2 stands at 23.3 µM (inactive)
